So I've got a bunch of compounds here, and I need their percent inhibition of viability values.
System: IMC-1 (IL-2 20 ng/mL)
PROCEDURE_TEXT: percent inhibition of viability; higher = more inhibition
APPLIED_CONDITIONS: 72 h; 250 nM
Answers are plain numbers, in %.

Some compounds with recorded percent inhibition of viability:
COMPOUND | MEASUREMENT_LABEL | RECORDED_VALUE
CN[C@@H](C)C(=O)N[C@H](C(=O)N1CCC[C@H]1c1nc(C(=O)c2ccc(F)cc2)cs1)C1CCCCC1 [LCL161] (max concentration tested 25000 nM) | percent inhibition of viability | 9.97
COc1ccc2c(OCc3nnc4ccc(-c5ccccc5)nn34)ccnc2c1 [AMG-208] (max concentration tested 2500 nM) | percent inhibition of viability | 6.67
CC(C)Cn1cnc2c(N)nc3ccccc3c21 [Imiquimod] (max concentration tested 2500 nM) | percent inhibition of viability | 10.8

Field: next compound
Output measured percent inhibition of viability for this item: COC[C@H](NC(=O)c1cnc(C)s1)C(=O)N[C@@H](COC)C(=O)N[C@@H](Cc1ccccc1)C(=O)[C@@]1(C)CO1 [Oprozomib] (max concentration tested 2500 nM) 101

----------
Tested on: SNK-6 (IL-2 2.5 ng/mL)
PROCEDURE_TEXT: percent inhibition of viability; higher = more inhibition
APPLIED_CONDITIONS: 72 h; 10000 nM
So I've got a bunch of compounds here, and I need their percent inhibition of viability values.
Numbers only, in %.

Some compounds with recorded percent inhibition of viability:
COMPOUND | MEASUREMENT_LABEL | RECORDED_VALUE
CNC(=O)c1ccc2cc([C@@]3(O)CCn4cncc43)ccc2c1 [Orteronel] (max concentration tested 10000 nM) | percent inhibition of viability | -9.24
Nc1nc(OCc2cc(Br)cs2)c2[nH]cnc2n1 [Lomeguatrib] (max concentration tested 10000 nM) | percent inhibition of viability | 9.3

Field: next compound
Output measured percent inhibition of viability for this item: COc1cc([C@@H]2c3cc4c(cc3[C@@H](O[C@@H]3O[C@@H]5CO[C@@H](C)O[C@H]5[C@H](O)[C@H]3O)[C@H]3COC(=O)[C@H]23)OCO4)cc(OC)c1O [Etoposide] (max concentration tested 10000 nM) 96.2

----------
So I've got a bunch of compounds here, and I need their percent inhibition of viability values.
System: normal NK cells expanded with K562-aAPC
PROCEDURE_TEXT: percent inhibition of viability; higher = more inhibition
APPLIED_CONDITIONS: 72 h; IL-2 2.5 ng/mL; 10000 nM
Numbers only, in %.

Some compounds with recorded percent inhibition of viability:
COMPOUND | TARGET_DESC | percent inhibition of viability / %
CC/C(=C(\c1ccc(O)cc1)c1ccc(OCCN(C)C)cc1)c1ccccc1 [4-hydroxytamoxifen] (max concentration tested 10000 nM) | normal NK cells expanded with K562-aAPC | 64
C=C(c1ccc(C(=O)O)cc1)c1cc2c(cc1C)C(C)(C)CCC2(C)C [Bexarotene] (max concentration tested 10000 nM) | normal NK cells expanded with K562-aAPC | -6.11

Quick batch: percent inhibition of viability for everything below.
1. CN(C)C(=N)NC(=N)N [Metformin] (max concentration tested 100000 nM)
2. COc1cc(OC)c(/C=C/S(=O)(=O)Cc2ccc(OC)c(NCC(=O)O)c2)c(OC)c1 [Rigosertib] (max concentration tested 10000 nM)
3. O=C(O)CCCc1ccc(N(CCCl)CCCl)cc1 [Chlorambucil] (max concentration tested 10000 nM)
4. N#CCNC(=O)c1ccc(-c2ccnc(Nc3ccc(N4CCOCC4)cc3)n2)cc1 [Momelotinib] (max concentration tested 10000 nM)
5. CC[C@H](C)C(=O)O[C@H]1C[C@@H](C)C=C2C=C[C@H](C)[C@H](CC[C@@H]3C[C@@H](O)CC(=O)O3)[C@H]21 [Lovastatin] (max concentration tested 10000 nM)
6. O=C(NC[C@H](O)CO)c1ccncc1Nc1ccc(I)cc1F [Pimasertib] (max concentration tested 10000 nM)

1. 6.39
2. 82.7
3. 46.2
4. 96.9
5. -8.93
6. 18

Quick batch: percent inhibition of viability for everything below.
1. C[C@@H]1C[C@H]2[C@@H]3CCC4=CC(=O)C=C[C@]4(C)[C@@]3(F)[C@@H](O)C[C@]2(C)[C@@]1(O)C(=O)CO [Dexamethasone] (max concentration tested 10000 nM)
2. NC(=O)NO [Hydroxyurea] (max concentration tested 100000 nM)
3. CCN(CC)CCOc1ccc(C(=C(Cl)c2ccccc2)c2ccccc2)cc1 [Clomifene] (max concentration tested 10000 nM)

1: 77.8; 2: 8.98; 3: 49.9

Quick batch: percent inhibition of viability for everything below.
1. CO[C@H](C(=O)[C@@H](O)[C@@H](C)O)[C@@H]1Cc2cc3cc(O[C@H]4C[C@@H](O[C@@H]5C[C@@H](O)[C@H](O)[C@@H](C)O5)[C@H](O)[C@@H](C)O4)c(C)c(O)c3c(O)c2C(=O)[C@H]1O[C@H]1C[C@@H](O[C@@H]2C[C@@H](O)[C@@H](O[C@@H]3C[C@](C)(O)[C@H](O)[C@@H](C)O3)[C@@H](C)O2)[C@H](O)[C@@H](C)O1 [Plicamycin] (max concentration tested 10000 nM)
2. CC1(C)NC(=O)N(c2ccc([N+](=O)[O-])c(C(F)(F)F)c2)C1=O [Nilutamide] (max concentration tested 10000 nM)
3. Cn1c(CCCC(=O)O)nc2cc(N(CCCl)CCCl)ccc21 [Bendamustine] (max concentration tested 10000 nM)
4. C[C@@H](C(=O)O)c1ccc(-c2ccccc2)c(F)c1 [Tarenflurbil] (max concentration tested 10000 nM)

86.7
12.4
42.8
3.26
